Would you mind telling me the reported log10(Ki) of each entry?
Scale: log10; quantity: Ki; unit before log: nM

Query: Fill: log10(Ki) (μ opioid receptor (Rattus norvegicus)) for this compound CCOC(=O)C(CNC(=O)[C@@H]1Cc2ccccc2CN1C(=O)[C@@H](N)Cc1ccc(O)cc1)c1ccccc1 (single isomer, unassigned) [Example 15]
Result: 2.95

Query: Give log10(Ki); test system μ opioid receptor (Rattus norvegicus); compound N[C@@H](Cc1ccc(O)cc1)C(=O)N1Cc2ccccc2C[C@H]1C(=O)NCC(C1CCCCC1)C1CCCCC1
Result: 1.72

Query: Please report the measured log10(Ki) for N[C@@H](Cc1ccc(O)cc1)C(=O)N1Cc2ccccc2C[C@H]1C(=O)N[C@H]1CCc2ccccc2C1 tested on μ opioid receptor (Rattus norvegicus).
Sequence (P33535 whole entry): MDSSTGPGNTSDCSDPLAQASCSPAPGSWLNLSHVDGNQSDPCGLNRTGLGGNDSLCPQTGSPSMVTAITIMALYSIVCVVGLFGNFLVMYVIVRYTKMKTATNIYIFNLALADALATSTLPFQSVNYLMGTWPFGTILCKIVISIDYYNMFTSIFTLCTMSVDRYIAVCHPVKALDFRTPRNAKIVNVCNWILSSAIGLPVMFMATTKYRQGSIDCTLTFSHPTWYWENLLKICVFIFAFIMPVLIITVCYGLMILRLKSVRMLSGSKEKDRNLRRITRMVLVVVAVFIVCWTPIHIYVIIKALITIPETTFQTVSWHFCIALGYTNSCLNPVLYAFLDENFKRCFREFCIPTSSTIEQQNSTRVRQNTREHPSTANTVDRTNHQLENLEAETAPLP
Result: 1.75

Query: GET log10(Ki) where system = μ opioid receptor (Rattus norvegicus) and item = N[C@@H](Cc1ccc(O)cc1)C(=O)N1Cc2ccccc2C[C@H]1C(=O)NCCc1ccccc1-c1ccccc1
Result: 1.87

Query: Report log10(Ki) under test system μ opioid receptor (Rattus norvegicus) for N[C@@H](Cc1ccc(O)cc1)C(=O)N1Cc2ccccc2C[C@H]1C(=O)NCC(c1ccc(Cl)cc1)c1ccc(Cl)cc1 .
Result: 3.19

Query: Print μ opioid receptor (Rattus norvegicus) log10(Ki) for CCOC(=O)C(CNC(=O)[C@@H]1Cc2ccccc2CN1C(=O)[C@@H](N)Cc1ccc(O)cc1)c1ccccc1 (single isomer, unassigned) [Example 16] .
Result: 2.18

###

molecular target: δ opioid receptor (Rattus norvegicus, UniProt P33533); construct: Male Sprague-Dawley rats (300-350 g) from the Canadian Breeding Laboratories were decapitated and after removal of the cerebellum the brains were homogenized; from tissue; host or cells: rat brain (without cerebellum) membranes, male Sprague-Dawley; assay: δ opioid receptor binding assay, displacement of [3H]DSLET from rat brain membranes; conditions: δ versus μ receptor selectivity
Sequence (P33533 whole entry): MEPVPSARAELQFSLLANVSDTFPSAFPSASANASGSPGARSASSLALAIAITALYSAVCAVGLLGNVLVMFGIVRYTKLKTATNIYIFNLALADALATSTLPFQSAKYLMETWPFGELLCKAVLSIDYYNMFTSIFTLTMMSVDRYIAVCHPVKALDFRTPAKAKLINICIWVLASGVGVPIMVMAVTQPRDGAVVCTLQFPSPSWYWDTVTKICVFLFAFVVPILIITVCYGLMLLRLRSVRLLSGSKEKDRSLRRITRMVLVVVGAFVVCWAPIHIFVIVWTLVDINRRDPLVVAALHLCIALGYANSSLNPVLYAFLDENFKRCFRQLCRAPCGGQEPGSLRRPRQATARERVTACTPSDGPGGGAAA
Assign Ki^μ/Ki^δ to each entry below.
Answer with a bare number; do not write a unit.

Query: Please supply the value of reported Ki^μ/Ki^δ for the item Nc1ccc(C(CNC(=O)[C@@H]2Cc3ccccc3CN2C(=O)[C@@H](N)Cc2ccc(O)cc2)c2ccc(N)cc2)cc1 [Example 25]
Result: 2000

Query: Give recorded Ki^μ/Ki^δ. N[C@@H](Cc1ccc(O)cc1)C(=O)N1Cc2ccccc2C[C@H]1C(=O)NCC(C1CCCCC1)C1CCCCC1 [Example 23]
Result: 4.64

Query: Note down Ki^μ/Ki^δ recorded for N[C@@H](Cc1ccc(O)cc1)C(=O)N1Cc2ccccc2C[C@H]1C(=O)N[C@H]1CCc2ccccc2C1 [Example 19, H-Tyr-Tic-2-S-At (At = aminotetralin)]
Result: 12.3

Query: Give reported Ki^μ/Ki^δ value for N[C@@H](Cc1ccc(O)cc1)C(=O)N1Cc2ccccc2C[C@H]1C(=O)N[C@@H]1CCc2ccccc2C1 [Example 20, H-Tyr-Tic-2-R-At (At = aminotetralin)]
Result: 15.3

Query: Please report Ki^μ/Ki^δ for the following compound: N[C@@H](Cc1ccc(O)cc1)C(=O)N1Cc2ccccc2C[C@H]1C(=O)NCCc1ccccc1[N+](=O)[O-] [Example 29]
Result: 46.1

Query: Answer with the recorded Ki^μ/Ki^δ for the compound listed here: NC(Cc1ccc(O)cc1)C(=O)N1Cc2ccccc2CC1C(=O)NCC(c1ccccc1)c1ccccc1 (stereo not drawn) [Example 1, H-Tyr-Tic-NH--CH2 --CH--(Ph)2]
Result: 29.4

Query: Retrieve Ki^μ/Ki^δ measured for N[C@@H](Cc1ccc(O)cc1)C(=O)N1Cc2ccccc2C[C@H]1C(=O)NCC(c1ccc([N+](=O)[O-])cc1)c1ccc([N+](=O)[O-])cc1 [Example 24] and print it.
Result: 88.6

Query: Consider the compound N[C@@H](Cc1ccc(O)cc1)C(=O)N1Cc2ccccc2C[C@H]1C(=O)NCC(CO)c1ccccc1 (single isomer, unassigned) [Example 27] . State its measured Ki^μ/Ki^δ.
Result: 55.8

Query: Give Ki^μ/Ki^δ for CCOC(=O)C(CNC(=O)[C@@H]1Cc2ccccc2CN1C(=O)[C@@H](N)Cc1ccc(O)cc1)c1ccccc1 (single isomer, unassigned) [Example 15]
Result: 1560

Query: Read the entry N[C@@H](Cc1ccc(O)cc1)C(=O)N1Cc2ccccc2C[C@H]1C(=O)NCC(c1ccc(Cl)cc1)c1ccc(Cl)cc1 [Example 26] and write its reported Ki^μ/Ki^δ.
Result: 553

Query: Provide one value: measured Ki^μ/Ki^δ of CCOC(=O)C(CNC(=O)[C@@H]1Cc2ccccc2CN1C(=O)[C@@H](N)Cc1ccc(O)cc1C)c1ccccc1 (single isomer, unassigned) [Example 31]
Result: 65.3

Ref: patent US6150335A
